Data origin: patent US10047105B2

Assign MIC, SA to each entry below.
Tested on: S. aureus ATCC 13709
experimental_details: MIC, antibacterial potency, S. aureus
Type: cell-based
settings: S. aureus (SA); in µg/mL
One number for each entry.

For orientation, consider the following solved cases.
CCc1[nH]c2nc(Sc3cnc4nccnc4c3)nc(Oc3ccc(OC)c(C#N)c3)c2c1Cl [700,834]: 1
CCc1[nH]c2nc(Sc3ccc4c(-n5ccnc5)cc(C)nc4c3)nc(N3CC[C@@H](N)C3)c2c1Cl [700,913]: 2
CCc1[nH]c2nc(Sc3cncnc3)nc(N3CC(CN)C3)c2c1Cl [700,786]: 16

Hey, can you go through the list below and give me MIC, SA for every item?
1. CCc1[nH]c2nc(Sc3ccc4cc5c(=O)[nH][nH]c(=O)c5nc4c3)nc(N3CC[C@@H](N)C3)c2c1Cl [700,861]
2. CCc1[nH]c2nc(Oc3cnc(C)nc3)nc(OC3CCNC3)c2c1Cl (centres unmarked) [701,291]

Reply:
[16, 32]

The following compounds each have a reported value; give each one's MIC, SA.
1. CCc1[nH]c2nc(Oc3cnc(O)nc3)nc(Oc3cnc(O)nc3)c2c1Br [701,105]
2. N[C@@H]1CCN(c2nc(Sc3cnc4nccnc4c3)nc3[nH]c(C4CC4)c(Cl)c23)C1 [700,977]
3. CCc1[nH]c2nc(Oc3cnc(C(N)=O)nc3)nc(N3CC4C(N)C4C3)c2c1Cl (centres unmarked) [701,133]
4. CCc1[nH]c2nc(Sc3cnc4c(=N)n(CCN(C)C)c(C)nc4c3)nc(N3CC[C@@H](N)C3)c2c1Cl [700,924]
5. CCc1[nH]c2nc(Oc3cncnc3)nc(N3CC4C(N)C4C3)c2c1C (centres unmarked) [701,193]
6. CCc1[nH]c2nc(Oc3ccc4ncnc(N5CC(N)C5)c4c3)nc(Oc3cncc(C#N)c3)c2c1Br [701,299]

Reply:
[1, 16, 8, 16, 8, 2]

---

System: S. pneumoniae ATCC 51916
experimental_details: MIC, S. pneumoniae
Format: cell-based
settings: S. pneumoniae
Provide the reported MIC Spn52 of each item.
Numbers only, in µg/mL.

Some compounds with recorded MIC Spn52:
CCc1[nH]c2nc(Sc3cnc4nccnc4c3)nc(N3CC4[C@H](C3)[C@@]4(N)C(N)=O)c2c1Cl.O=C(O)C(F)(F)F.O=C(O)C(F)(F)F (stereo partly shown) [700,781]: 1
CCc1[nH]c2nc(Sc3cnc4nccnc4c3)nc(N3CC(CNC(=O)CCN4CCCCC4)C3)c2c1Cl [700,518]: 4
CCc1[nH]c2nc(Sc3cnc4nccnc4c3)nc(N3CCOCC3)c2c1Br [700,423]: 2

Ask: I'd like to know its MIC Spn52. The compound in question is CCc1[nH]c2nc(Sc3ccc4cc(C(=O)OC)cnc4c3)nc(N3CC[C@@H](N)C3)c2c1Cl [700,698]
Reply: 8

---

Test system: S. pneumoniae ATCC 51916
experimental_details: MIC, S. pneumoniae
Assay type: cell-based
settings: S. pneumoniae
Assignment: determine reported MIC Spn52 for the given molecules.
One number for each entry, in µg/mL.

CCc1[nH]c2nc(Sc3ccc4cc(C(=O)N[C@H]5CCOC5=O)cnc4c3)nc(N3CC[C@@H](N)C3)c2c1Cl [700,697]: 8

Quick one: give me MIC Spn52 for each item below, same order please.
1. CCc1[nH]c2nc(Sc3cnc4nccnc4c3)nc(N3CC(CNC(=O)C4CC4)C3)c2c1Cl [700,516]
2. CCc1[nH]c2nc(Sc3ccc4c(NC)ncnc4c3)nc(N3CCC(N)C3)c2c1Cl (centres unmarked) [700,576]

Reply:
1: 1; 2: 16

Ask: Entry CCc1[nH]c2nc(Oc3cccnc3)nc(N3CCN(c4cnccn4)CC3)c2c1Cl.O=C(O)C(F)(F)F [700,465] : reported MIC Spn52 = ?
Reply: 32

---

Test system: S. aureus ATCC 13709
experimental_details: MIC, antibacterial potency, S. aureus
Assay type: cell-based
settings: S. aureus (SA); in µg/mL
property_label: MIC, SA
Give bare numbers.

CCc1[nH]c2nc(Oc3ccc4nccnc4c3)nc(OC3CCN(C(=O)OC(C)(C)C)CC3)c2c1Cl [701,289]: 16
CCc1[nH]c2nc(Oc3ccc4nccnc4c3)nc(C(C)=O)c2c1Cl [700,961]: 1
CCc1[nH]c2nc(Sc3ccc4c(N5CCC(N)CC5)nc(C)nc4c3)nc(N3CC[C@@H](N)C3)c2c1Cl [700,983]: 32

Required: MIC, SA, one value per compound below.
1. CCc1[nH]c2nc(Sc3cnc4cccnc4c3)nc(N3C[C@@H](N)[C@H](c4ccccc4)C3)c2c1Cl [700,872]
2. CCc1[nH]c2nc(Sc3cnc4c(c3)ncc(=O)n4CCO)nc(N3CC[C@@H](N)C3)c2c1Cl [700,798]
3. CCc1[nH]c2nc(Oc3cccc(C#N)c3)nc(C(C)O)c2c1Cl (centres unmarked) [700,930]

Reply:
1. 1
2. 16
3. 8

---

System: S. aureus ATCC 13709
experimental_details: MIC, antibacterial potency, S. aureus
Format: cell-based
settings: S. aureus (SA); in µg/mL
Exercise: for every item that follows, state its recorded MIC, SA.
Answers are plain numbers.

Example cases with answers are listed next.
Cc1[nH]c2nc(Sc3cnc4nccnc4c3)nc(N3CC4C(N)C4C3)c2c1C (centres unmarked): 8
CCc1[nH]c2nc(Sc3cccnc3)nc(Cl)c2c1C(F)F: 64
CCc1[nH]c2nc(Sc3cncnc3)nc(N3CC4CCNC4C3)c2c1Cl (centres unmarked): 4
CCc1[nH]c2nc(Sc3cnc4c(N)nc(CN5CCC(N)CC5)nc4c3)nc(N3CC[C@@H](N)C3)c2c1Cl: 4
CCc1[nH]c2nc(Sc3cnc4cccnc4c3)nc(N3C[C@@H]4[C@H](C3)[C@H]4N(Cc3ccccc3)Cc3ccccc3)c2c1Cl: 64

// next item, MIC, SA requested
Ask: Reported MIC, SA for `N[C@@H]1CCN(c2nc(Sc3cnc4cccnc4c3)nc3[nH]c(CC(F)(F)F)c(Cl)c23)C1` : what is it?
Reply: 2

---

System: S. pneumoniae ATCC 51916
experimental_details: MIC, S. pneumoniae
Type: cell-based
settings: S. pneumoniae
property_label: MIC Spn52

Batch lookup, MIC Spn52 per entry.
1. CCc1[nH]c2nc(Oc3cncc(C#N)c3)nc(Oc3cncc(C#N)c3)c2c1Cl.O=C(O)C(F)(F)F [700,723]
2. CCc1[nH]c2nc(Oc3cncc(F)c3)nc(Oc3cncc(F)c3)c2c1Cl.O=C(O)C(F)(F)F [700,477]
3. CCc1[nH]c2nc(Sc3cnc4c(c3)ncn4CC)nc(N3CC(O)C3)c2c1Br [700,405]
4. CCc1[nH]c2nc(Oc3cnc4ccoc4c3)nc(Oc3cncc(OC)c3)c2c1Cl.O=C(O)C(F)(F)F [700,649]

Reply:
2 µg/mL
16 µg/mL
2 µg/mL
2 µg/mL

List the reported MIC Spn52 of each compound below.
1. CCc1[nH]c2nc(Sc3cnc4nccnc4c3)nc(N3CC(NS(C)(=O)=O)C3)c2c1Cl [700,435]
2. CCc1[nH]c2nc(Cn3cncn3)nc(N3CCN(C(C)=O)CC3)c2c1Br [700,374]
3. CCc1[nH]c2nc(Sc3cnc4nccnc4c3)nc(N3CC(CNC(=O)C4CCC(O)CC4)C3)c2c1Cl (centres unmarked) [700,521]
4. CCOC(=O)Cc1nc(N)c2ncc(Sc3nc(N4CC(O)C4)c4c(Cl)c(CC)[nH]c4n3)cc2n1.O=C(O)C(F)(F)F.O=C(O)C(F)(F)F [700,473]
5. CCc1[nH]c2nc(Nc3cnc4c(c3)nnn4C(C)C)nc(N3CC(O)C3)c2c1Cl.O=C(O)C(F)(F)F [700,525]

Reply:
1. 1 µg/mL
2. > 64 µg/mL
3. 2 µg/mL
4. 64 µg/mL
5. > 64 µg/mL

# batch: return MIC Spn52 for each of the 7 compounds below
1. CCOc1nc(Sc2cc(C(=O)NC3CC3)ccn2)nc2[nH]c(CC)c(Cl)c12 [700,306]
2. CCc1[nH]c2nc(Sc3nc(C(=O)N4CCOCC4)cs3)nc(N3CCN(C(C)=O)CC3)c2c1Cl.O=C(O)C(F)(F)F [700,365]
3. CCc1[nH]c2nc(Sc3cnc4nccnc4c3)nc(N3CC(CN)C3)c2c1Cl [700,463]
4. CCc1[nH]c2nc(Sc3cnc4ccoc4c3)nc(N3CC4CNC4C3)c2c1Cl.O=C(O)C(F)(F)F (centres unmarked) [700,677]
5. CCc1[nH]c2nc(Sc3cnc4nccnc4c3)nc(N3CCCC(CO)C3)c2c1Cl (centres unmarked) [700,425]
6. CCc1[nH]c2nc(Oc3ccc(OC)nc3)nc(Oc3ccc(OC)nc3)c2c1Br.O=C(O)C(F)(F)F [700,591]
7. CCc1[nH]c2nc(Sc3cnc4nccnc4c3)nc(N3CCCNCC3)c2c1Cl.O=C(O)C(F)(F)F [700,569]

Reply:
1: > 64 µg/mL; 2: > 64 µg/mL; 3: 4 µg/mL; 4: 8 µg/mL; 5: 2 µg/mL; 6: > 64 µg/mL; 7: 4 µg/mL
